The reader will find reported polymerase ribozyme fitness (log ratio) values listed item by item below.
B1: TPR 5TU (parent)
chain: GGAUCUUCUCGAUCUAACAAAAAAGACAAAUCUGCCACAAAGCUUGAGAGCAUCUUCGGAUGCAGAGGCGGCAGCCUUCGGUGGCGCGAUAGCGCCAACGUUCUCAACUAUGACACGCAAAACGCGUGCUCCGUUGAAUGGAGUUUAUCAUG

variants of: B1; assay: polymerase ribozyme fitness, log enrichment relative to wild type (log ratio); higher = more active; in vitro selection for triplet polymerase activity
Fewer inactive variants are shown than the library holds.
Answer with the value's number alone.

MUTATION ANNOTATION	polymerase ribozyme fitness (log ratio)
U53A G143C	-2.05
G84A A150C	-3
A47C U55G	0.183
A19G A40C C93U	-0.92
A19U C87G	-4.17
A52C G83U A106G	-2.56

Form: variant = C95U C96U G124U G136C ; polymerase ribozyme fitness (log ratio) = -3.61

Form: variant = G124C C132A ; polymerase ribozyme fitness (log ratio) = -2.4

Form: variant = U53C U56A A89U C93U G141U ; polymerase ribozyme fitness (log ratio) = -1.74

Form: variant = U13G U56A ; polymerase ribozyme fitness (log ratio) = -0.285

Form: variant = A12G C85A C118A G136U ; polymerase ribozyme fitness (log ratio) = -3.83
